Test: protein stability index of a GFP-peptide fusion (yeast GPS) (PSI 1-4); higher = more stable; sorted into four equal gates, so the index is relative within each strain
Settings: ubr1∆
PARAMETER: protein stability index
Numbers only.

Data request: # get_value(readout='protein stability index', item= QYYLSVLNQQLPIESQF [BRR2] )
Data returned: 2.42

Data request: # get_value(readout='protein stability index', item= PEDLNSLYIYYLIKLLG [SIR2] )
Data returned: 1.95

Data request: # get_value(readout='protein stability index', item= EVLTYVNYLISNTMYSV [YJL039C/NUP192] )
Data returned: 2.5

Data request: # get_value(readout='protein stability index', item= LYKIFSYALSMEKDKLK [SNU114] )
Data returned: 1.65

For every listed record, write down its protein stability index.
1. ASRSQLEKGEIELSDGS [YJL039C/NUP192]
2. EETDEVSSESSDEAIIP [SIR3]

Data returned:
3
2.82

For every listed record, write down its protein stability index.
1. ADNVDKILEQFEYVLYP [FAS2]
2. FVEVERARVTKDLVEIK [RPN5]
3. PQNTTATTGGLFGSKPQ [YGR119C/NUP57]

Data returned:
1: 2.57; 2: 3.56; 3: 3.53

For every listed record, write down its protein stability index.
1. ISVIETIRVVTENKIFV [RPN5]
2. ESNDRINKIVEILTNQQ [YGR119C/NUP57]
3. LLHERKLLNDLALENGE [NUT1]
4. ANLMLVMLRLLLVVIFK [SRB4]
5. VLSPDSNIMSDSKKIKV [GAL11]

Data returned:
1: 2.03; 2: 2.23; 3: 2.84; 4: 1.46; 5: 2.21

* * *

Hi there, I'd appreciate the recorded protein stability index for every entry that follows.
Assay: protein stability index of a GFP-peptide fusion (yeast GPS) (PSI 1-4); higher = more stable; sorted into four equal gates, so the index is relative within each strain
Settings: san1∆
Numbers only.

Answered examples (3):
Data request: # get_value(readout='protein stability index', item= PMASSSSFGSESLTFNE [SWI1] )
Data returned: 3.14

Data request: # get_value(readout='protein stability index', item= ASKSKKKFNMGKEFEAR [RPC53] )
Data returned: 3.27

Data request: # get_value(readout='protein stability index', item= IVEINNVSNTFNKTTNI [YJL041W/NSP1] )
Data returned: 2.71

For every listed record, write down its protein stability index.
1. LIAIVSKLLQTTLKLSP [NUT1]
2. SLYIYYLIKLLGFEVKD [SIR2]
3. LTKYKEMERIVKNLTKY [SRP68]
4. MTTWRKLYTKELSVTGS [YMR129W/POM152]
5. AQGKEFGVTKARWPAKS [RPL17A]

Data returned:
[1.31, 2.31, 2.82, 1.41, 3.26]

For every listed record, write down its protein stability index.
1. FTAEGIVPDLIINPHAI [RPB2]
2. QALDISKKGKPTVNKKP [SRP72]
3. SNIMSDSKKIKVDSPDD [GAL11]
4. DSSMTTVQENELLKSSL [AAR2]
5. KHLEDNTLLISGPFKVN [RPL6A]

Data returned:
[2.08, 2.36, 3.03, 3.12, 1.63]

* * *

Assay: protein stability index of a GFP-peptide fusion (yeast GPS) (PSI 1-4); higher = more stable; sorted into four equal gates, so the index is relative within each strain
Details: doa10∆
Decide by protein stability index: equal to or exceeding 3 means met, less means not met.

Use the examples below as a reference point.
Data request: Does the reported protein stability index for SSSSLECATCHGNLASC [RPO31] fall at or above the 3 mark?
Data returned: not met

Data request: Does the reported protein stability index for SVPTNSADAPNPNNVNV [RET1] fall at or above the 3 mark?
Data returned: met

Data request: Does the reported protein stability index for ESESERKYDLFQNLELE [SMC2] fall at or above the 3 mark?
Data returned: met

Data request: Does the reported protein stability index for VHLSNGYKMIPGAKPLQ [FAS1] fall at or above the 3 mark?
Data returned: not met

Data request: Does the reported protein stability index for SVERGRKRAHSLVSTQS [REC8] fall at or above the 3 mark?
Data returned: met

Data request: Does the reported protein stability index for EEEATMTTSAVSPTVGK [YIL149C/MLP2] fall at or above the 3 mark?
Data returned: met

Data request: Does the reported protein stability index for WNRLTISVTDTEVERAK [COR1] fall at or above the 3 mark?
Data returned: met

Data request: Does the reported protein stability index for RSRNGGATKIVREHYLR [DIS3] fall at or above the 3 mark?
Data returned: met

Others:
Data request: Does the reported protein stability index for PIGRHEELLAQYESQAP [SWP82] fall at or above the 3 mark?
Data returned: not met

Data request: Does the reported protein stability index for KPGIPRGNTKIHSMNEN [SIR3] fall at or above the 3 mark?
Data returned: met

Data request: Does the reported protein stability index for NMLPQRQSSVGSLNATN [SNF2] fall at or above the 3 mark?
Data returned: not met

* * *

Experiment: protein stability index of a GFP-peptide fusion (yeast GPS) (PSI 1-4); higher = more stable; sorted into four equal gates, so the index is relative within each strain
Settings: doa10∆
PARAMETER: protein stability index
One number for each entry.

Answered examples (8):
Data request: # get_value(readout='protein stability index', item= KHLEDNTLLISGPFKVN [RPL6A] )
Data returned: 1.83

Data request: # get_value(readout='protein stability index', item= LLVKLSKRLPLRFPEHT [BRR2] )
Data returned: 2.3

Data request: # get_value(readout='protein stability index', item= SDPMLQRTATLCLEKLM [YCS4] )
Data returned: 1.47

Data request: # get_value(readout='protein stability index', item= SHFDYNTLEFIIEQLSI [YCG1] )
Data returned: 2.48

Data request: # get_value(readout='protein stability index', item= MVLRNVMEYDVKFYEIF [SRB8] )
Data returned: 1.88

Data request: # get_value(readout='protein stability index', item= PLSESLRLVDDDENNPS [RRP6] )
Data returned: 3.15

Data request: # get_value(readout='protein stability index', item= FYAAVQKNYADPEKDSI [SIN4] )
Data returned: 2.11

Data request: # get_value(readout='protein stability index', item= VNAPLPTPFKVDDNVDF [RPN2] )
Data returned: 2.91

For every listed record, write down its protein stability index.
1. PKKFGGKGARSRFQKSY [RPS16A]
2. DRKDQDDRDHFGKKRLD [RPB2]

Data returned:
[3.22, 3.27]

For every listed record, write down its protein stability index.
1. VVDVALKYPELSIKNSF [NUT1]
2. EINSVGNPGLPQYQYQR [ITC1]
3. HNKLIQFGNACISLSGV [SSN2]
4. KDIEKLTNEISDLKGKL [YIL149C/MLP2]
5. LKLNTSLPSKLTKYKEM [SRP68]

Data returned:
1. 3.04
2. 2.66
3. 2.45
4. 3.04
5. 1.77

* * *

Hi there, I'd appreciate the recorded protein stability index for every entry that follows.
Experiment: protein stability index of a GFP-peptide fusion (yeast GPS) (PSI 1-4); higher = more stable; sorted into four equal gates, so the index is relative within each strain
Settings: ubr1∆
Give bare numbers.

For every listed record, write down its protein stability index.
1. KQENSTLLKKANRDDVK [RPC82]
2. SAIDEEIEELIDSINGP [SMC3]
3. VEVDITLSPNVTDSSLL [GRR1]
4. RNNVANKQPRNESFNRR [YAR002W/NUP60]
5. QMLIQGVWDVDNPLRQI [BRR2]

Data returned:
1. 3.12
2. 2.42
3. 2.82
4. 3.24
5. 2.78

For every listed record, write down its protein stability index.
1. PTIEYVQCPTVIKLAKY [ARP9]
2. SQLQEQFNKILPEPTEG [FAS1]
3. NGTISKTGKKNKVAKKN [SRP14]
4. MPQSGTGVSVEAVDDVF [RPN11]

Data returned:
1.98
2.71
3.17
3.19

* * *

Assay: protein stability index of a GFP-peptide fusion (yeast GPS) (PSI 1-4); higher = more stable; sorted into four equal gates, so the index is relative within each strain
Conditions: pdr5∆
PARAMETER: protein stability index

Answered examples (3):
Data request: # get_value(readout='protein stability index', item= LKLSMADYNGALLRVTK [POP4] )
Data returned: 2.52

Data request: # get_value(readout='protein stability index', item= IQPTAKVVYIQRRSWRQ [DIS3] )
Data returned: 1.48

Data request: # get_value(readout='protein stability index', item= IAKIKKVCECVCMHCGK [RPO21] )
Data returned: 2.28

For every listed record, write down its protein stability index.
1. GIAIGLNKGKKVTQMTP [RPL36B]
2. QEESFSLNLGIGIVEIA [SRB8]
3. VSALQMLKQHLFKYQGH [PUP1]

Data returned:
1.51
1.79
2.71
